Where these numbers come from: patent US4877893A

Reported Diameter of colony (mm) is given for each of the following compounds.
# System: Sclerotinia sclerotinia
# experiment.summary: Fungicidal effect on infected agar nutrient media, colony diameter
# Format: cell-based
# study.conditions: 1 ppm; 3rd day after treatment; untreated control 41.7
property.name: Diameter of colony (mm)

{"compound": "CC(C)COP1(=S)OC(C)CS1 (stereo not drawn)", "property.name": "Diameter of colony (mm)", "reported.result": 37.1}
{"compound": "CC(I)COP1(=S)OCCS1 (stereo not drawn)", "property.name": "Diameter of colony (mm)", "reported.result": 34.3}
{"compound": "CC1CSP(=S)(OC(C)C(C)Br)O1 (stereo not drawn)", "property.name": "Diameter of colony (mm)", "reported.result": 37.8}
{"compound": "CC(Cl)COP1(=S)OC(C)CS1 (stereo not drawn)", "property.name": "Diameter of colony (mm)", "reported.result": 37.8}
{"compound": "CC1COP(=S)(OCCBr)S1 (stereo not drawn)", "property.name": "Diameter of colony (mm)", "reported.result": 37.6}
{"compound": "CC(Cl)COP1(=S)OCCS1 (stereo not drawn)", "property.name": "Diameter of colony (mm)", "reported.result": 33.9}
{"compound": "CC(Br)COP1(=S)OCC(C)S1 (stereo not drawn)", "property.name": "Diameter of colony (mm)", "reported.result": 40.9}
{"compound": "CC1OP(=S)(OCCBr)SC1C (stereo not drawn)", "property.name": "Diameter of colony (mm)", "reported.result": 40.1}
{"compound": "CC(CI)OP1(=S)OC(C)CS1 (stereo not drawn)", "property.name": "Diameter of colony (mm)", "reported.result": 33.8}
{"compound": "S=P1(OCCBr)OCCS1 (stereo not drawn)", "property.name": "Diameter of colony (mm)", "reported.result": 32.9}
{"compound": "CC(CI)OP1(=S)OCCS1 (stereo not drawn)", "property.name": "Diameter of colony (mm)", "reported.result": 35.9}
{"compound": "CC(I)COP1(=S)OC(C)CS1 (stereo not drawn)", "property.name": "Diameter of colony (mm)", "reported.result": 38.1}

====

Reported Diameter of colony (mm) is given for each of the following molecules.
# Tested on: Sclerotinia sclerotinia
# experiment.summary: Fungicidal effect on infected agar nutrient media, colony diameter
# Format: cell-based
# study.conditions: 1 ppm; 3rd day after treatment; untreated control 41.7

{"molecule": "CC(I)C(C)OP1(=S)OC(C)C(C)S1 (stereo not drawn) [Compound 45]", "scale.unit": "mm", "Diameter of colony (mm)": 39.2}
{"molecule": "CC(I)C(C)OP1(=S)OCCS1 (stereo not drawn) [Compound 30]", "scale.unit": "mm", "Diameter of colony (mm)": 34.8}
{"molecule": "CC1COP(=S)(OCCCl)S1 (stereo not drawn) [Compound 7]", "scale.unit": "mm", "Diameter of colony (mm)": 38.1}
{"molecule": "CCCCOP1(=S)OCCS1 (stereo not drawn) [Compound 59]", "scale.unit": "mm", "Diameter of colony (mm)": 34.3}
{"molecule": "CC(Cl)COP1(=S)OC(C)C(C)S1 (stereo not drawn) [Compound 40]", "scale.unit": "mm", "Diameter of colony (mm)": 34.9}
{"molecule": "CC1CSP(=S)(OC(C)C(C)Cl)O1 (stereo not drawn) [Compound 37]", "scale.unit": "mm", "Diameter of colony (mm)": 39.2}
{"molecule": "CCCOP1(=S)OCCS1 (stereo not drawn) [Compound 46]", "scale.unit": "mm", "Diameter of colony (mm)": 34.6}
{"molecule": "CC1COP(=S)(OCCI)S1 (stereo not drawn) [Compound 9]", "scale.unit": "mm", "Diameter of colony (mm)": 39.2}
{"molecule": "CC(CI)OP1(=S)OC(C)C(C)S1 (stereo not drawn) [Compound 36]", "scale.unit": "mm", "Diameter of colony (mm)": 37.2}
{"molecule": "CCCCOP1(=S)OC(C)C(C)S1 (stereo not drawn) [Compound 63]", "scale.unit": "mm", "Diameter of colony (mm)": 34.2}
{"molecule": "CC1COP(=S)(OC(C)C(C)Cl)S1 (stereo not drawn) [Compound 31]", "scale.unit": "mm", "Diameter of colony (mm)": 37.4}
{"molecule": "CC(C)OP1(=S)OCCS1 (stereo not drawn) [Compound 57]", "scale.unit": "mm", "Diameter of colony (mm)": 37.8}
{"molecule": "CC1CSP(=S)(OCCCl)O1 (stereo not drawn) [Compound 4]", "scale.unit": "mm", "Diameter of colony (mm)": 34.6}
{"molecule": "CC(Br)COP1(=S)OC(C)CS1 (stereo not drawn) [Compound 23]", "scale.unit": "mm", "Diameter of colony (mm)": 36.9}
{"molecule": "CC(CBr)OP1(=S)OC(C)C(C)S1 (stereo not drawn) [Compound 35]", "scale.unit": "mm", "Diameter of colony (mm)": 38.1}
{"molecule": "CC(I)COP1(=S)OC(C)C(C)S1 (stereo not drawn) [Compound 42]", "scale.unit": "mm", "Diameter of colony (mm)": 38.2}
{"molecule": "CC(CCl)OP1(=S)OC(C)C(C)S1 (stereo not drawn) [Compound 34]", "scale.unit": "mm", "Diameter of colony (mm)": 34.6}
{"molecule": "CC(Br)COP1(=S)OC(C)C(C)S1 (stereo not drawn) [Compound 41]", "scale.unit": "mm", "Diameter of colony (mm)": 37.6}
{"molecule": "CC(CBr)OP1(=S)OCCS1 (stereo not drawn) [Compound 11]", "scale.unit": "mm", "Diameter of colony (mm)": 34.6}
{"molecule": "CCCOP1(=S)OCC(C)S1 (stereo not drawn) [Compound 48]", "scale.unit": "mm", "Diameter of colony (mm)": 35.8}
{"molecule": "CC1COP(=S)(OC(C)C(C)I)S1 (stereo not drawn) [Compound 33]", "scale.unit": "mm", "Diameter of colony (mm)": 33.2}
{"molecule": "CC(Br)C(C)OP1(=S)OCCS1 (stereo not drawn) [Compound 29]", "scale.unit": "mm", "Diameter of colony (mm)": 31.9}
{"molecule": "CC(CCl)OP1(=S)OCCS1 (stereo not drawn) [Compound 10]", "scale.unit": "mm", "Diameter of colony (mm)": 40.1}
{"molecule": "CCC(C)OP1(=S)OCCS1 (stereo not drawn) [Compound 49]", "scale.unit": "mm", "Diameter of colony (mm)": 37.2}
{"molecule": "CCCC(C)OP1(=S)OCCS1 (stereo not drawn) [Compound 62]", "scale.unit": "mm", "Diameter of colony (mm)": 37.0}
{"molecule": "CC(C)C(C)OP1(=S)OC(C)C(C)S1 (stereo not drawn) [Compound 54]", "scale.unit": "mm", "Diameter of colony (mm)": 34.9}
{"molecule": "CC1COP(=S)(OC(C)C(C)Br)S1 (stereo not drawn) [Compound 32]", "scale.unit": "mm", "Diameter of colony (mm)": 38.9}
{"molecule": "CC(I)COP1(=S)OCC(C)S1 (stereo not drawn) [Compound 27]", "scale.unit": "mm", "Diameter of colony (mm)": 41.2}
{"molecule": "CC(CCl)OP1(=S)OC(C)CS1 (stereo not drawn) [Compound 19]", "scale.unit": "mm", "Diameter of colony (mm)": 36.5}
{"molecule": "S=P1(OCCCl)OCCS1 (stereo not drawn) [Compound 1]", "scale.unit": "mm", "Diameter of colony (mm)": 39.4}
{"molecule": "CC(Br)C(C)OP1(=S)OC(C)C(C)S1 (stereo not drawn) [Compound 44]", "scale.unit": "mm", "Diameter of colony (mm)": 35.4}
{"molecule": "CCCCOP1(=S)OCC(C)S1 (stereo not drawn) [Compound 61]", "scale.unit": "mm", "Diameter of colony (mm)": 35.6}
{"molecule": "CC1OP(=S)(OCCCl)SC1C (stereo not drawn) [Compound 16]", "scale.unit": "mm", "Diameter of colony (mm)": 39.4}
{"molecule": "CCCC(C)OP1(=S)OC(C)C(C)S1 (stereo not drawn) [Compound 66]", "scale.unit": "mm", "Diameter of colony (mm)": 34.8}
{"molecule": "CCCOP1(=S)OCC(CC)S1 (stereo not drawn) [Compound 51]", "scale.unit": "mm", "Diameter of colony (mm)": 34.3}
{"molecule": "CC1OP(=S)(OCCI)SC1C (stereo not drawn) [Compound 18]", "scale.unit": "mm", "Diameter of colony (mm)": 38.2}
{"molecule": "CCCOP1(=S)OC(C)CS1 (stereo not drawn) [Compound 47]", "scale.unit": "mm", "Diameter of colony (mm)": 33.9}
{"molecule": "CCCCOP1(=S)OC(C)CS1 (stereo not drawn) [Compound 64]", "scale.unit": "mm", "Diameter of colony (mm)": 36.9}
{"molecule": "CC(CBr)OP1(=S)OC(C)CS1 (stereo not drawn) [Compound 20]", "scale.unit": "mm", "Diameter of colony (mm)": 34.9}
{"molecule": "CC(C)COP1(=S)OCCS1 (stereo not drawn) [Compound 50]", "scale.unit": "mm", "Diameter of colony (mm)": 36.5}
{"molecule": "CCOP1(=S)OCCS1 (stereo not drawn) [Compound 55]", "scale.unit": "mm", "Diameter of colony (mm)": 33.1}
{"molecule": "CCCCOP1(=S)OCCS1 (stereo not drawn) [Compound 58]", "scale.unit": "mm", "Diameter of colony (mm)": 36.2}
{"molecule": "CC(Cl)C(C)OP1(=S)OCCS1 (stereo not drawn) [Compound 28]", "scale.unit": "mm", "Diameter of colony (mm)": 33.6}
{"molecule": "CC(Cl)C(C)OP1(=S)OC(C)C(C)S1 (stereo not drawn) [Compound 43]", "scale.unit": "mm", "Diameter of colony (mm)": 37.6}
{"molecule": "S=P1(OCCI)OCCS1 (stereo not drawn) [Compound 3]", "scale.unit": "mm", "Diameter of colony (mm)": 37.4}
{"molecule": "CC(Br)COP1(=S)OCCS1 (stereo not drawn) [Compound 14]", "scale.unit": "mm", "Diameter of colony (mm)": 38.1}
{"molecule": "CCCCC(C)OP1(=S)OC(C)C(C)S1 (stereo not drawn) [Compound 65]", "scale.unit": "mm", "Diameter of colony (mm)": 35.8}
{"molecule": "CC(C)CCOP1(=S)OCCS1 (stereo not drawn) [Compound 67]", "scale.unit": "mm", "Diameter of colony (mm)": 36.3}
{"molecule": "CC(Cl)COP1(=S)OCC(C)S1 (stereo not drawn) [Compound 25]", "scale.unit": "mm", "Diameter of colony (mm)": 38.8}
{"molecule": "CCC(C)OP1(=S)OC(C)C(C)S1 (stereo not drawn) [Compound 53]", "scale.unit": "mm", "Diameter of colony (mm)": 35.8}
{"molecule": "S=P1(OCCS)OCCS1 (stereo not drawn) [Compound 56]", "scale.unit": "mm", "Diameter of colony (mm)": 40.2}
